Recorded metric: melting point

CC1(Cc2cccc(Br)c2)C(=O)N(c2cc(Cl)cc(Cl)c2)c2cccc(O)c21 (stereo not shown) [Example 11] ... 225 to 227 °C

Incoming: Write down melting point measured for item O=C1C(Cc2ccccc2)c2c(O)cccc2N1c1cc(Cl)cc(Cl)c1 (stereo not shown) [Example 12]
Outgoing: 181 to 185 °C

Incoming: Write down melting point measured for item O=C(O)c1ccc2c(c1)N(c1cc(Cl)cc(Cl)c1)C(=O)C2Cc1ccc(Br)cc1 (stereo not shown) [Example 8]
Outgoing: 264 to 266 °C

----------
Entries and their melting point

# example entries with known answers
CC1(Cc2ccccc2)C(=O)N(c2cc(Cl)cc(Cl)c2)c2cccc(O)c21 (stereo not shown) ... 165 to 166.5 °C
O=C1C(Cc2ccc(Br)cc2)c2cc(F)ccc2N1c1cc(Cl)cc(Cl)c1 (stereo not shown) ... 178 to 179 °C
O=C1C(Cc2ccc(Br)cc2)c2ccccc2N1c1cc(Cl)cc(Cl)c1 (stereo not shown) ... 139 to 142 °C
O=C1C(Cc2ccccc2)c2cc(O)ccc2N1c1cc(Cl)cc(Cl)c1 (stereo not shown) ... 232 to 235 °C
COc1cccc2c1C(Cc1ccccc1)C(=O)N2c1cc(Cl)cc(Cl)c1 (stereo not shown) ... 138 to 140 °C

Incoming: Write down melting point measured for item COc1ccc2c(c1)C(Cc1ccccc1)C(=O)N2c1cc(Cl)cc(Cl)c1 (stereo not shown)
Outgoing: 118 to 119 °C

Incoming: Write down melting point measured for item O=C1C(Cc2ccccc2)c2ccccc2N1c1cc(Cl)cc(Cl)c1 (stereo not shown)
Outgoing: 109 to 111 °C

Incoming: Write down melting point measured for item COc1cccc2c1C(Cc1cccc(Br)c1)C(=O)N2c1cc(Cl)cc(Cl)c1 (stereo not shown)
Outgoing: 142 to 144 °C

Incoming: Write down melting point measured for item O=C1C(Cc2ccc(Br)cc2)c2c(O)cccc2N1c1cc(Cl)cc(Cl)c1 (stereo not shown)
Outgoing: 203 to 208 °C

Incoming: Write down melting point measured for item CC1(Cc2ccc(Br)cc2)C(=O)N(c2cc(Cl)cc(Cl)c2)c2cccc(O)c21 (stereo not shown)
Outgoing: 225 to 227 °C
